Test system: MDA-MB-468
Assay: Antiproliferative activity against human MDA-MB-468 cells assessed as growth inhibition after 48 hrs by sulforhodamine B assay
Type: functional
Settings: MDA-MB-468, 48 h
Each entry below lists one item and its recorded GI50 value.
Respond with the bare value in nM.

{"smiles-notation": "N=C(N)c1ccc(-c2ccc(-c3ccc(Cl)cc3)s2)s1", "unit-descriptor": "nM", "GI50": 1980}
{"smiles-notation": "N=C(N)c1ccc(-c2ccc(-c3cc(Cl)cc(Cl)c3)s2)s1", "unit-descriptor": "nM", "GI50": 2060}

From here, focus on the item given below.
Query: Please give the measured GI50 for this molecule: N=C(N)c1ccc(-c2ccc(-c3ccc(F)cc3)s2)s1
Result: 2040
